The measured values listed here are drawn from BigSolDB 2.1.

Details: in isopropanol, 283.15 K
parameter: solubility (mole fraction)
Keep it simple and answer with nothing but the number.

Ask: Quick check: solubility (mole fraction) of "NCCCCCC(=O)O" ?
Reply: 7.7e-05

----------
Details: in ethyl acetate, 318.15 K
parameter: solubility (mole fraction)
Keep it simple and answer with nothing but the number.

Ask: Quick check: solubility (mole fraction) of "NCCCCCC(=O)O" ?
Reply: 0.000262

----------
Details: in water, 298.15 K
parameter: solubility (mole fraction)
Keep it simple and answer with nothing but the number.

Ask: Quick check: solubility (mole fraction) of "NCCCCCC(=O)O" ?
Reply: 0.137

----------
Conditions: in methyl acetate, 323.15 K
parameter: solubility (mole fraction)
Keep it simple and answer with nothing but the number.

Ask: Quick check: solubility (mole fraction) of "NCCCCCC(=O)O" ?
Reply: 0.000172

----------
Details: in methyl acetate, 303.15 K
parameter: solubility (mole fraction)
Keep it simple and answer with nothing but the number.

Ask: Quick check: solubility (mole fraction) of "NCCCCCC(=O)O" ?
Reply: 0.000154

----------
Details: in ethyl acetate, 303.15 K
parameter: solubility (mole fraction)
Keep it simple and answer with nothing but the number.

Ask: Quick check: solubility (mole fraction) of "NCCCCCC(=O)O" ?
Reply: 0.0002

----------
Settings: in water, 303.15 K
parameter: solubility (mole fraction)

Ask: Quick check: solubility (mole fraction) of "NCCCCCC(=O)O" ?
Reply: 0.145

----------
Settings: in ethyl acetate, 313.15 K
parameter: solubility (mole fraction)
Keep it simple and answer with nothing but the number.

Ask: Quick check: solubility (mole fraction) of "NCCCCCC(=O)O" ?
Reply: 0.000241

----------
Details: in water, 318.15 K
parameter: solubility (mole fraction)
Keep it simple and answer with nothing but the number.

Ask: Quick check: solubility (mole fraction) of "NCCCCCC(=O)O" ?
Reply: 0.16

----------
Settings: in isopropanol, 293.15 K
parameter: solubility (mole fraction)

Ask: Quick check: solubility (mole fraction) of "NCCCCCC(=O)O" ?
Reply: 9.2e-05

----------
Conditions: in isopropanol, 313.15 K
parameter: solubility (mole fraction)
Keep it simple and answer with nothing but the number.

Ask: Quick check: solubility (mole fraction) of "NCCCCCC(=O)O" ?
Reply: 0.000162

----------
Conditions: in water, 323.15 K
parameter: solubility (mole fraction)
Keep it simple and answer with nothing but the number.

Ask: Quick check: solubility (mole fraction) of "NCCCCCC(=O)O" ?
Reply: 0.167

----------
Settings: in methyl acetate, 313.15 K
parameter: solubility (mole fraction)
Keep it simple and answer with nothing but the number.

Ask: Quick check: solubility (mole fraction) of "NCCCCCC(=O)O" ?
Reply: 0.000166

----------
Conditions: in methyl acetate, 288.15 K
parameter: solubility (mole fraction)
Keep it simple and answer with nothing but the number.

Ask: Quick check: solubility (mole fraction) of "NCCCCCC(=O)O" ?
Reply: 0.000129

----------
Settings: in ethyl acetate, 323.15 K
parameter: solubility (mole fraction)
Keep it simple and answer with nothing but the number.

Ask: Quick check: solubility (mole fraction) of "NCCCCCC(=O)O" ?
Reply: 0.000289

----------
Conditions: in methyl acetate, 318.15 K
parameter: solubility (mole fraction)

Ask: Quick check: solubility (mole fraction) of "NCCCCCC(=O)O" ?
Reply: 0.00017

----------
Conditions: in water, 293.15 K
parameter: solubility (mole fraction)
Keep it simple and answer with nothing but the number.

Ask: Quick check: solubility (mole fraction) of "NCCCCCC(=O)O" ?
Reply: 0.13

----------
Conditions: in methyl acetate, 308.15 K
parameter: solubility (mole fraction)
Keep it simple and answer with nothing but the number.

Ask: Quick check: solubility (mole fraction) of "NCCCCCC(=O)O" ?
Reply: 0.000161

----------
Details: in ethyl acetate, 293.15 K
parameter: solubility (mole fraction)
Keep it simple and answer with nothing but the number.

Ask: Quick check: solubility (mole fraction) of "NCCCCCC(=O)O" ?
Reply: 0.000174

----------
Conditions: in isopropanol, 298.15 K
parameter: solubility (mole fraction)
Keep it simple and answer with nothing but the number.

Ask: Quick check: solubility (mole fraction) of "NCCCCCC(=O)O" ?
Reply: 0.000108
